test system: Mycobacterium tuberculosis Erdman (autoluminescent); test: GRinf, maximum normalised growth rate inhibition (three-drug combination) (unitless (-1 to 1)); higher = less effect (negative = killing); settings: in vitro model: dormancy (butyrate + nitrate, low O2); time point: terminal (~4-5 doublings, model-specific)
Below, each entry is listed alongside its reported GRinf.
When you answer, write just the number.

Illustrative cases are given below, each with its answer.
CC(C)/N=c1\cc2n(-c3ccc(Cl)cc3)c3ccccc3nc-2cc1Nc1ccc(Cl)cc1 [clofazimine] + CC(=O)NC[C@H]1CN(c2ccc(N3CCOCC3)c(F)c2)C(=O)O1 [linezolid] + O=[N+]([O-])c1cn2c(n1)OC[C@@H](OCc1ccc(OC(F)(F)F)cc1)C2 [pretomanid]; -0.216
CC(=O)NC[C@H]1CN(c2ccc(N3CCOCC3)c(F)c2)C(=O)O1 [linezolid] + O=[N+]([O-])c1cn2c(n1)OC[C@@H](OCc1ccc(OC(F)(F)F)cc1)C2 [pretomanid] + CO[C@H]1/C=C/O[C@@]2(C)Oc3c(C)c(O)c4c(O)c(c(/C=N/N5CCN(C)CC5)c(O)c4c3C2=O)NC(=O)/C(C)=C\C=C\[C@H](C)[C@H](O)[C@@H](C)[C@@H](O)[C@@H](C)[C@H](OC(C)=O)[C@@H]1C [rifampicin]; -0.0505

Moving on to the next compound.
[Q] For the compound CC(=O)NC[C@H]1CN(c2ccc(N3CCOCC3)c(F)c2)C(=O)O1 [linezolid] + COc1c(N2C[C@@H]3CCCN[C@@H]3C2)c(F)cc2c(=O)c(C(=O)O)cn(C3CC3)c12 [moxifloxacin] + CO[C@H]1/C=C/O[C@@]2(C)Oc3c(C)c(O)c4c(O)c(c(/C=N/N5CCN(C6CCCC6)CC5)c(O)c4c3C2=O)NC(=O)/C(C)=C\C=C\[C@H](C)[C@H](O)[C@@H](C)[C@@H](O)[C@@H](C)[C@H](OC(C)=O)[C@@H]1C [rifapentine] , report GRinf.
[A] -0.11

###

test system: Mycobacterium tuberculosis Erdman (autoluminescent); experiment: FIC90 (Loewe) at 90% inhibition (log2); higher = more antagonistic; conditions: in vitro model: intracellular J774; time point: constant = terminal
Tick Yes if FIC90 is -0.3 or greater. Tick No if FIC90 is less than -0.3.

Worked cases, answers included:
CC(C)/N=c1\cc2n(-c3ccc(Cl)cc3)c3ccccc3nc-2cc1Nc1ccc(Cl)cc1 [clofazimine] + CC[C@@H](CO)NCCN[C@@H](CC)CO [ethambutol]; No
CC[C@@H](CO)NCCN[C@@H](CC)CO [ethambutol] + O=[N+]([O-])c1cn2c(n1)OC[C@@H](OCc1ccc(OC(F)(F)F)cc1)C2 [pretomanid]; No
CC[C@@H](CO)NCCN[C@@H](CC)CO [ethambutol] + CO[C@H]1/C=C/O[C@@]2(C)Oc3c(C)c(O)c4c(O)c(c(/C=N/N5CCN(C)CC5)c(O)c4c3C2=O)NC(=O)/C(C)=C\C=C\[C@H](C)[C@H](O)[C@@H](C)[C@@H](O)[C@@H](C)[C@H](OC(C)=O)[C@@H]1C [rifampicin]; No
COc1nc2ccc(Br)cc2cc1[C@@H](c1ccccc1)[C@@](O)(CCN(C)C)c1cccc2ccccc12 [bedaquiline] + O=[N+]([O-])c1cn2c(n1)OC[C@@H](OCc1ccc(OC(F)(F)F)cc1)C2 [pretomanid]; Yes
CC(=O)NC[C@H]1CN(c2ccc(N3CCOCC3)c(F)c2)C(=O)O1 [linezolid] + O=[N+]([O-])c1cn2c(n1)OC[C@@H](OCc1ccc(OC(F)(F)F)cc1)C2 [pretomanid]; Yes

[Q] Answer whether FIC90 of COc1nc2ccc(Br)cc2cc1[C@@H](c1ccccc1)[C@@](O)(CCN(C)C)c1cccc2ccccc12 [bedaquiline] + NC(=O)c1cnccn1 [pyrazinamide] is greater than or equal to -0.3.
[A] Yes

[Q] Answer whether FIC90 of O=[N+]([O-])c1cn2c(n1)OC[C@@H](OCc1ccc(OC(F)(F)F)cc1)C2 [pretomanid] + CO[C@H]1/C=C/O[C@@]2(C)Oc3c(C)c(O)c4c(O)c(c(/C=N/N5CCN(C)CC5)c(O)c4c3C2=O)NC(=O)/C(C)=C\C=C\[C@H](C)[C@H](O)[C@@H](C)[C@@H](O)[C@@H](C)[C@H](OC(C)=O)[C@@H]1C is greater than or equal to -0.3.
[A] No

###

system: Mycobacterium tuberculosis Erdman (autoluminescent); experiment: total FIC50 (Loewe) at 50% inhibition, three-drug combination (log2); higher = more antagonistic; settings: in vitro model: valerate; time point: constant (~7 days, model-specific)
reported-metric: total FIC50
When you answer, write just the number.

Illustrative cases are given below, each with its answer.
CC[C@@H](CO)NCCN[C@@H](CC)CO [ethambutol] + CC(=O)NC[C@H]1CN(c2ccc(N3CCOCC3)c(F)c2)C(=O)O1 [linezolid] + CO[C@H]1/C=C/O[C@@]2(C)Oc3c(C)c(O)c4c(O)c(c(/C=N/N5CCN(C)CC5)c(O)c4c3C2=O)NC(=O)/C(C)=C\C=C\[C@H](C)[C@H](O)[C@@H](C)[C@@H](O)[C@@H](C)[C@H](OC(C)=O)[C@@H]1C [rifampicin]; 0.437
NNC(=O)c1ccncc1 [isoniazid] + CC(=O)NC[C@H]1CN(c2ccc(N3CCOCC3)c(F)c2)C(=O)O1 [linezolid] + NC(=O)c1cnccn1 [pyrazinamide]; -2.58
CC(C)/N=c1\cc2n(-c3ccc(Cl)cc3)c3ccccc3nc-2cc1Nc1ccc(Cl)cc1 [clofazimine] + NNC(=O)c1ccncc1 [isoniazid] + CC(=O)NC[C@H]1CN(c2ccc(N3CCOCC3)c(F)c2)C(=O)O1 [linezolid]; 0.318
CC(=O)NC[C@H]1CN(c2ccc(N3CCOCC3)c(F)c2)C(=O)O1 [linezolid] + COc1c(N2C[C@@H]3CCCN[C@@H]3C2)c(F)cc2c(=O)c(C(=O)O)cn(C3CC3)c12 [moxifloxacin] + CO[C@H]1/C=C/O[C@@]2(C)Oc3c(C)c(O)c4c(O)c(c(/C=N/N5CCN(C)CC5)c(O)c4c3C2=O)NC(=O)/C(C)=C\C=C\[C@H](C)[C@H](O)[C@@H](C)[C@@H](O)[C@@H](C)[C@H](OC(C)=O)[C@@H]1C [rifampicin]; 0.393

[Q] For the compound CC(C)/N=c1\cc2n(-c3ccc(Cl)cc3)c3ccccc3nc-2cc1Nc1ccc(Cl)cc1 [clofazimine] + NC(=O)c1cnccn1 [pyrazinamide] + CO[C@H]1/C=C/O[C@@]2(C)Oc3c(C)c(O)c4c(O)c(c(/C=N/N5CCN(C6CCCC6)CC5)c(O)c4c3C2=O)NC(=O)/C(C)=C\C=C\[C@H](C)[C@H](O)[C@@H](C)[C@@H](O)[C@@H](C)[C@H](OC(C)=O)[C@@H]1C [rifapentine] , report total FIC50.
[A] 0.0622

[Q] For the compound CC[C@@H](CO)NCCN[C@@H](CC)CO [ethambutol] + CO[C@H]1/C=C/O[C@@]2(C)Oc3c(C)c(O)c4c(O)c(c(/C=N/N5CCN(C6CCCC6)CC5)c(O)c4c3C2=O)NC(=O)/C(C)=C\C=C\[C@H](C)[C@H](O)[C@@H](C)[C@@H](O)[C@@H](C)[C@H](OC(C)=O)[C@@H]1C [rifapentine] + CO[C@H]1/C=C/O[C@@]2(C)Oc3c(C)c(O)c4c(O)c(c(/C=N/N5CCN(C)CC5)c(O)c4c3C2=O)NC(=O)/C(C)=C\C=C\[C@H](C)[C@H](O)[C@@H](C)[C@@H](O)[C@@H](C)[C@H](OC(C)=O)[C@@H]1C [rifampicin] , report total FIC50.
[A] -0.0551

###

Below, each entry is listed alongside its reported AUC25.
system: Mycobacterium tuberculosis Erdman (autoluminescent); test: AUC25, normalised area under dose response up to IC25 (fraction (0-1)); higher = more potent at low dose; conditions: in vitro model: butyrate; time point: constant (~7 days, model-specific)
When you answer, write just the number.

O=[N+]([O-])c1cn2c(n1)OC[C@@H](OCc1ccc(OC(F)(F)F)cc1)C2 [pretomanid] + CO[C@H]1/C=C/O[C@@]2(C)Oc3c(C)c(O)c4c(O)c(c(/C=N/N5CCN(C)CC5)c(O)c4c3C2=O)NC(=O)/C(C)=C\C=C\[C@H](C)[C@H](O)[C@@H](C)[C@@H](O)[C@@H](C)[C@H](OC(C)=O)[C@@H]1C [rifampicin]; 0.0943
CC[C@@H](CO)NCCN[C@@H](CC)CO [ethambutol] + O=[N+]([O-])c1cn2c(n1)OC[C@@H](OCc1ccc(OC(F)(F)F)cc1)C2 [pretomanid]; 0.0746

Moving on to the next compound.
[Q] For the compound CC[C@@H](CO)NCCN[C@@H](CC)CO [ethambutol] + CC(=O)NC[C@H]1CN(c2ccc(N3CCOCC3)c(F)c2)C(=O)O1 [linezolid] , report AUC25.
[A] 0.0872
